All figures here come from ChEMBL document CHEMBL3046015.

system: Linaria genistifolia subsp. dalmatica; experiment: Phytotoxicity in Linaria genistifolia subsp. dalmatica assessed as inhibition of seed germination at 250 ug/mL measured on day 14 relative to untreated control; format: functional, organism-based
The source made the active and inactive calls. No cut-off for these calls is given here.
Pick one: active, inactive

Test call, this compound: O=c1c(O)c(-c2ccc(O)c(O)c2)oc2cc(O)cc(O)c12 [QUERCETIN]
inactive

For this compound, state the assay outcome: O=C1C[C@@H](c2ccc(O)cc2)Oc2cc(O)cc(O)c21 [NARINGENIN]
inactive

Returns: the outcome recorded for O=C1c2c(O)cc(O)cc2OC(c2ccc(O)c(O)c2)C1O (racemic) [TAXIFOLIN] in this assay.
active

Test call, this compound: Oc1cc(O)c2c(c1)O[C@H](c1ccc(O)c(O)c1)[C@H](O)C2 [(-)-EPICATECHIN]
inactive

Outcome logged for Oc1cc(O)c2c(c1)O[C@@H](c1ccc(O)c(O)c1)[C@@H](O)C2 [(+)-EPICATECHIN] in this assay:
active

// return assay outcome for O=c1c(O)c(-c2ccc(O)cc2)oc2cc(O)cc(O)c12 [KAEMPFEROL]
active

----------
test system: Centaurea maculosa; test: Phytotoxicity in Centaurea maculosa assessed as inhibition of seed germination at 250 ug/mL measured on day 14 relative to untreated control; format: functional, organism-based
Activity calls are given as the source filed them. No cut-off for these calls is given here.
property.name: inhibition

Recorded results for 4 compounds are shown here.
>>> observed_result("O=C1c2c(O)cc(O)cc2OC(c2ccc(O)c(O)c2)C1O (racemic)")
"inactive"
>>> observed_result("O=c1c(O)c(-c2ccc(O)cc2)oc2cc(O)cc(O)c12")
"inactive"
>>> observed_result("O=c1c(O)c(-c2ccc(O)c(O)c2)oc2cc(O)cc(O)c12")
"inactive"
>>> observed_result("Oc1cc(O)c2c(c1)O[C@H](c1ccc(O)c(O)c1)[C@H](O)C2 [(-)-EPICATECHIN]")
"inactive"

Consider the additional compound presented here.
// lookup inhibition for O=C1C[C@@H](c2ccc(O)cc2)Oc2cc(O)cc(O)c21
inactive

----------
test system: Linaria genistifolia subsp. dalmatica; test: Phytotoxicity in Linaria genistifolia subsp. dalmatica assessed as inhibition of shoot differentiation at 250 ug/mL measured on day 14 relative to untreated control; assay type: functional, organism-based
Active and inactive are the calls of the source. The rule behind the calls is not given here.
Please reply with one of these outcomes: active, inactive

# fetch the recorded call for Oc1cc(O)c2c(c1)O[C@H](c1ccc(O)c(O)c1)[C@H](O)C2 [(-)-EPICATECHIN] here
inactive

What call does the record list for O=C1C[C@@H](c2ccc(O)cc2)Oc2cc(O)cc(O)c21 ?
inactive

Outcome logged for Oc1cc(O)c2c(c1)O[C@@H](c1ccc(O)c(O)c1)[C@@H](O)C2 [(+)-EPICATECHIN] in this assay:
active

Give the logged outcome of this assay for the following molecule: O=c1c(O)c(-c2ccc(O)c(O)c2)oc2cc(O)cc(O)c12
inactive

----------
test system: Centaurea maculosa; assay: Phytotoxicity in Centaurea maculosa assessed as inhibition of shoot differentiation at 250 ug/mL measured on day 14 relative to untreated control; type: functional, organism-based
Activity calls are given as the source filed them. No cut-off for these calls is given here.
Write down one outcome, taken from T = active, F = inactive

Could you check what this test reported for Oc1cc(O)c2c(c1)O[C@@H](c1ccc(O)c(O)c1)[C@@H](O)C2 [(+)-EPICATECHIN] ?
T

Call for entry O=c1c(O)c(-c2ccc(O)c(O)c2)oc2cc(O)cc(O)c12 :
F

Short answer needed: outcome of this test for Oc1cc(O)c2c(c1)O[C@H](c1ccc(O)c(O)c1)[C@H](O)C2 [(-)-EPICATECHIN] ?
F

Fill in: this test's call for O=C1C[C@@H](c2ccc(O)cc2)Oc2cc(O)cc(O)c21 is ___
F

----------
test system: Triticum aestivum; assay: Phytotoxicity in Triticum aestivum (wheat) assessed as inhibition of seed germination at 250 ug/mL measured on day 14 relative to untreated control; type: organism-based; settings: in vivo
property.name: inhibition (INH)

Observe how each entry below is paired with its result.
>>> observed_result("O=C1c2c(O)cc(O)cc2OC(c2ccc(O)c(O)c2)C1O (racemic) [TAXIFOLIN]")
"Toxic"
>>> observed_result("Oc1cc(O)c2c(c1)O[C@@H](c1ccc(O)c(O)c1)[C@@H](O)C2 [(+)-EPICATECHIN]")
"Toxic"
>>> observed_result("O=c1c(O)c(-c2ccc(O)cc2)oc2cc(O)cc(O)c12 [KAEMPFEROL]")
"Toxic"
>>> observed_result("O=C1C[C@@H](c2ccc(O)cc2)Oc2cc(O)cc(O)c21 [NARINGENIN]")
"Non-toxic"
>>> observed_result("O=c1c(O)c(-c2ccc(O)c(O)c2)oc2cc(O)cc(O)c12 [QUERCETIN]")
"Non-toxic"

Please find the next molecule below.
Give the measured inhibition (INH) of Oc1cc(O)c2c(c1)O[C@H](c1ccc(O)c(O)c1)[C@H](O)C2 [(-)-EPICATECHIN] .
Non-toxic

----------
system: Centaurea diffusa; test: Phytotoxicity in Centaurea diffusa assessed as inhibition of root differentiation at 250 ug/mL measured on day 14 relative to untreated control; type: functional, organism-based
Activity calls are given as the source filed them. The calls are words filed in the database; no cut-off is given here.
Classes to choose from: yes (1) (active), no (0) (inactive)

Which outcome did this test record for the compound O=C1C[C@@H](c2ccc(O)cc2)Oc2cc(O)cc(O)c21 ?
no (0)

Hi, sorry to bother you, what did the test record for O=c1c(O)c(-c2ccc(O)c(O)c2)oc2cc(O)cc(O)c12 ?
no (0)

Assay outcome for Oc1cc(O)c2c(c1)O[C@H](c1ccc(O)c(O)c1)[C@H](O)C2 [(-)-EPICATECHIN] : what was it?
no (0)

Field: outcome | Entry: Oc1cc(O)c2c(c1)O[C@@H](c1ccc(O)c(O)c1)[C@@H](O)C2 [(+)-EPICATECHIN]
yes (1)
